// data source = paper PMC5540273

- System: PIP5K2B;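 also: KINOMEscan kinase panel screen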
- Test Parameters: concentration: 1 μM, replicates: in singlicate; n = 1
Metric Name: %Inh (%)
Just the number please, in %, no unit attached.

Reference set, count: 4
>>> df
                                   compound  study_system  reported_result
0  O=C(Nc1n[nH]c2cc(-c3ccoc3)ccc12)C1CC1 [SB-738481]       PIP5K2B               18
1  Cl.NC(=O)c1cccc(Nc2nccc(Nc3ccc(Oc4c(Cl)cccc4Cl)c(Cl)c3)n2)c1 [GW659009]       PIP5K2B             97.4
2  c1ccc(Oc2ccc(Nc3ccnc4cc(-c5ccc(CNCCN6CCOCC6)o5)ccc34)cc2)nc1 [GW567145]       PIP5K2B               21
3  O=C(Nc1n[nH]c2nc(-c3ccc(O)cc3)ccc12)C1CC1 [SB-710363]       PIP5K2B               56

Reported %Inh (PIP5K2B) for entry Oc1cc(Nc2ccnc3cc(I)ccc23)ccc1F [GW552771] is 0

Reported %Inh (PIP5K2B) for entry Cc1ccc(C)c(NC(=O)NC2CCN(c3ccnc(Nc4ccc(F)cc4)n3)C2)c1 (stereo not drawn) [GSK1379720] is 38

Reported %Inh (PIP5K2B) for entry Cc1occc1-c1ncc(OC[C@@H](N)Cc2c[nH]c3ccccc23)cc1-c1ccc2[nH]nc(C)c2c1.O=C(O)C(F)(F)F [GSK682037] is 40

Reported %Inh (PIP5K2B) for entry COc1ccc(Nc2nccc(N3CCC(NC(=O)Nc4cccc(OC)c4)C3)n2)cc1 (stereo not drawn) [GSK1379742] is 14

Reported %Inh (PIP5K2B) for entry c1ccc(-c2n[nH]cc2Nc2ccnc3ccccc23)nc1 [GW694077] is 54
